- Study Target: T1, IL-18R on HEK-Blue IL18R reporter cells (UniProt Q13478 19-541; O95256 20-599)
- T1 sequence (looked up) 1: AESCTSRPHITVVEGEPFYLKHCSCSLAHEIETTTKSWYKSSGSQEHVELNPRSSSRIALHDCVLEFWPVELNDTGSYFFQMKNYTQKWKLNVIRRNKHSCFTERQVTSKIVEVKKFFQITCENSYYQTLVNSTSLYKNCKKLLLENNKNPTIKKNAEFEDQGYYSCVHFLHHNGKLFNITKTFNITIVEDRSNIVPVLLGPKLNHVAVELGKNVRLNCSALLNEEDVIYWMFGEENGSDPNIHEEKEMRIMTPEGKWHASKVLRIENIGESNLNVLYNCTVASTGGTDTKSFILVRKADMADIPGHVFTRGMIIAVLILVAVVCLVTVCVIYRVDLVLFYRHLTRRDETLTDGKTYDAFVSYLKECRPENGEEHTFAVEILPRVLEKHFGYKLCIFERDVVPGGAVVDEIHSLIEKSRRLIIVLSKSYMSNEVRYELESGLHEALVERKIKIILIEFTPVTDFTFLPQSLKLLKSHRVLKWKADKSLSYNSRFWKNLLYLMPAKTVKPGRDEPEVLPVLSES
- T1 sequence (looked up) 2: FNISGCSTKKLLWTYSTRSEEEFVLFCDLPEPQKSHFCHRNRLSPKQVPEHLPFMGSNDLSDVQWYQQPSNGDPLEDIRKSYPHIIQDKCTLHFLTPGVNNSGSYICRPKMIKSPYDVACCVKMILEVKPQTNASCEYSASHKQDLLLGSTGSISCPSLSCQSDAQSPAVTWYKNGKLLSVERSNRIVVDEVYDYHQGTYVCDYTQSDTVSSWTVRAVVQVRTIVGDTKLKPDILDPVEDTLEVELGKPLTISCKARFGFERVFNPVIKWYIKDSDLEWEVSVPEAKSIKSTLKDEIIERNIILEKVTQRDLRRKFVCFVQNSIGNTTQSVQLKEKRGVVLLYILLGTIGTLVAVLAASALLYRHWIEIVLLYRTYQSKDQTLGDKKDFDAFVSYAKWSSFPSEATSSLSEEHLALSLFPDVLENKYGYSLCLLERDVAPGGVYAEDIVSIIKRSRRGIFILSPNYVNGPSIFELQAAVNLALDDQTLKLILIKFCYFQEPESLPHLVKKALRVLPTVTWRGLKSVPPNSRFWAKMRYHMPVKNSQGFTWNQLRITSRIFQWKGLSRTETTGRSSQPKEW
- Assay Procedure: cell-based or functional assay
Experimental Endpoint: EC50, HEK-Blue IL18R SEAP reporter (pM)

Would you please look over these solved cases?
Binder	EC50, HEK-Blue IL18R SEAP reporter (pM)
IL-18 polypeptide C141 (SEQ ID NO: 71) (ligand) GYFGKLKSKLSIIRNLNDQVLFIDQGNRPLFEDMTDSDARDNAPRTIFIISMYADSQPRGMAVAISVKCEKISTLSAENKIISFKEMNPPDNIKDTKSDIIFFQRSVPGHDNKMQFESSSYEGYFLAAEKERDLFKLILKKEDELGDRSIMFTVQNED	1.68
IL-18 polypeptide C156 (ligand) YFGKLESKLSIIRNLNDQVLFIDQGNRPLFEDMTDSDARDAAPRTIFIISMYADSQPRGMAVTISVKCEKISTLSAENKIISFKEMNPPDNIKDTKSDIIFFQRSVPGHDNKMQFESSSYEGYFLAAEKERDLFKLILKKEDELGDRSIMFTVQNED	11.7
IL-18 polypeptide SEQ ID NO: 54 (E06K, K53A, C38S, C68S, C76S, C127S, K70C) (ligand) YFGKLKSKLSVIRNLNDQVLFIDQGNRPLFEDMTDSDSRDNAPRTIFIISMYADSQPRGMAVTISVKSECISTLSSENKIISFKEMNPPDNIKDTKSDIIFFQRSVPGHDNKMQFESSSYEGYFLASEKERDLFKLILKKEDELGDRSIMFTVQNED	9.12

[A] IL-18 polypeptide C153 (ligand) YFGKLESKLSIIRNLNDQVLFIDQGNRPLFEDMTDSAARDNAPRTIFIISMYADSQPRGMAVTISVKCEKISTLSAENKIISFKEMNPPDNIKDTKSDIIFFQRSVPGHDNKMQFESSSYEGYFLAAEKERDLFKLILKKEDELGDRSIMFTVQNED
[B] IL-18 polypeptide C160 (ligand) YFGKLESKLSIIRNLNDQVLFIDQGNRPLFEDMTDSDARDNAPRTIFIISMYADSQPRGMAVTISVKCEKISTLSAENKIISFKEMNPPDNIKDTKSDIIFFQRSVPGHANKMQFESSSYEGYFLAAEKERDLFKLILKKEDELGDRSIMFTVQNED
For the pair A and B , which entry has the numerically smaller recorded EC50, HEK-Blue IL18R SEAP reporter? // return label of chosen record
B

[A] IL-18 polypeptide C142 (ligand) MFGKLKSKLSIIRNLNDQVLFIDQGNRPLFEDMTDSDARDNAPRTIFIISMYADSQPRGMAVAISVKCEKISTLSAENKIISFKEMNPPDNIKDTKSDIIFFQRSVPGHDNKMQFESSSYEGYFLAAEKERDLFKLILKKEDELGDRSIMFTVQNED
[B] IL-18 polypeptide C184 (ligand) YFGKLRSKLSIIRNLNDQVLFIDQGNRPLFEDMTDSDARDNAPRTIFIISMYADSQPRGMAVAISVKCEKISTLSAENKIISFKEMNPPDNIKDTKSDIIFFQRSVPGHDNKMQFESSSYEGYFLAAEKERDLFKLILKKEDELGDRSIMFTVQNED
Thinking about recorded EC50, HEK-Blue IL18R SEAP reporter values, which is higher, A or B ? // return label of chosen record
B
(B: 0.04 pM, A: 0.02 pM)

[1] IL-18 polypeptide C164 (ligand) YFGKLESKLSIIRNLNDQVLFIDQGNRPLFEDMTDSDARDNAPRTIFIISMYKDHQPRGMAVTISVKCEKISTLSAENKIISFKEMNPPDNIKDTKSDIIFFQRSVPGHDNKMQFESSSYEGYFLAAEKERDLFKLILKKEDELGDRSIMFTVQNED
[2] IL-18 polypeptide C181 (ligand) YFGKLKSKLSIIRNLNDQVLFIDQGNRPLFEDMTDSDARDNAPRTIFIISMYADSQPRGMAVAISVKCEKISTLSAENKIISFKEMNPPDNIKDTKSDIIFFQRSVPGHDNKMQFESSSYEGYFLAAEKERDLFKLILKKEDELGDRSIMFTEQNED
[3] IL-18 polypeptide C150 (ligand) YFGKLESKLSIIRNLNDQVLFIDQGNRPLFEDMADSDARDNAPRTIFIISMYADSQPRGMAVTISVKCEKISTLSAENKIISFKEMNPPDNIKDTKSDIIFFQRSVPGHDNKMQFESSSYEGYFLAAEKERDLFKLILKKEDELGDRSIMFTVQNED
Provide the items ranked by increasing EC50, HEK-Blue IL18R SEAP reporter. # respond with the labels, arranged in the requested order
2, 3, 1
